Experiment: NCI Yeast Anticancer Drug Screen. Data for the cln2 rad14 strain (AID 165);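 further: 0% = growth equal to vehicle treated cultures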
Details: S. cerevisiae cln2 rad14 strain, at 50.0 µM, hits give high values
About 79,000 compounds went through this panel and 15% of them were active in at least one assay; those are over-represented in the sample as a whole.
valueKind: growth inhibition (%)
One number for each entry, in %.

These solved cases illustrate the format of a correct answer.
molecule=C=CCNC(=S)Nc1cccc(O)c1 reportedvalue=-31.8
molecule=Cc1cc(C)c(/C(O)=C/C(=S)N2CCOCC2)c(C)c1 reportedvalue=-33
molecule=CC(=O)Nc1ccc([N+](=O)[O-])cc1[N+](=O)[O-] reportedvalue=-37.9
molecule="CC(C)CCCC(C)C1CCC2(C)C3=C(CCC12C)C1(C)CCC(O)C(C)(C)C1CC3=O (configuration not stated)" reportedvalue=1.85
molecule=O=C1CCCC/C1=C/c1ccccc1 reportedvalue=-19.1

Please give growth inhibition for each item listed below.
1. O=c1oc(-c2ccccc2)nc2c1CCCS2
2. OC12C=CC(CCCC1)O2 (configuration not stated)
3. CC12CCC[C@@](C)(C(=O)OC3OC(CO)C(O)C(O)C3O)[C@H]1CCC13CC4CC(OC4(CO)[C@H]1O)[C@@H]23 (some centres not stated)
4. N#Cc1[nH]c(=O)n(-c2ccc(Cl)cc2)c1N
5. Nc1c(Cl)cnn2nnnc12
6. Cc1ccn2c(CCc3nnc4cc(C)ccn34)nnc2c1
7. Cc1ccc2c(-c3ccc4ccccc4c3)c3ccccc3cc2c1

OUT:
1: 1.85; 2: 3.2; 3: -18.8; 4: -11.3; 5: -11.9; 6: 0.4; 7: -12.6
